Source: patent US9708336B2

# Lookup of reported IC50 keyed by entry
Molecular target: NDM-1 (Klebsiella pneumoniae)
Sequence (C7C422 whole entry, looked up, species assumed): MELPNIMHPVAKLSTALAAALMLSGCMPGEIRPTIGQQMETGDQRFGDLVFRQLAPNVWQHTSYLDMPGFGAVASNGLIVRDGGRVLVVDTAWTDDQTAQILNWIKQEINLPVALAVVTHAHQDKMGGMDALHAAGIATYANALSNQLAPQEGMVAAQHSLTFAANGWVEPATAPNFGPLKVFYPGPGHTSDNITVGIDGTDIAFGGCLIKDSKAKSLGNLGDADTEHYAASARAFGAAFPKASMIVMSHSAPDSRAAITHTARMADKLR
Experiment: biochemical
Format: biochemical
Conditions: NDM-1 enzyme, CCF2-FA substrate; read-out: NDM-1 IC50
assay_readout: IC50 (nM)

>>> value("NC1(c2ccc(-c3ccc(C(F)(F)F)c(S(N)(=O)=O)c3-c3nnn[nH]3)cc2)CC(O)C1 (stereo not shown)")
2.58
>>> value("NS(=O)(=O)c1c(C(F)(F)F)ccc([C@H]2CC[C@H](NC3CC[C@@H]4CNCC[C@H]4C3)CC2)c1-c1nnn[nH]1 (stereo partly shown)")
38.6
>>> value("NS(=O)(=O)c1c(C(F)(F)F)ccc(-c2ccc(CN3CCNCC3)cc2)c1-c1nnn[nH]1")
1.51
>>> value("NC(=O)C1CCCN(c2ccc(C(F)(F)F)c(S(N)(=O)=O)c2-c2nnn[nH]2)C1 (stereo not shown)")
11.6
>>> value("Nc1ncc(C#Cc2ccc(C(F)(F)F)c(S(N)(=O)=O)c2-c2nn[nH]n2)cc1CO")
11.5
>>> value("NS(=O)(=O)c1c(CC2CCNCC2)ccc(-c2ccc(C3CNC3)cc2)c1-c1nnn[nH]1")
8.86
>>> value("NC[C@H]1CC[C@@H](c2ccc(CCC3CCNCC3)c(S(N)(=O)=O)c2-c2nnn[nH]2)CC1")
8.6
